Hello, the source for this data is patent US20180162928A1, in case you need it.

- study-target: human serum albumin (human) (UniProt P02768)
- Sequence (P02768 25-609 limits assumed): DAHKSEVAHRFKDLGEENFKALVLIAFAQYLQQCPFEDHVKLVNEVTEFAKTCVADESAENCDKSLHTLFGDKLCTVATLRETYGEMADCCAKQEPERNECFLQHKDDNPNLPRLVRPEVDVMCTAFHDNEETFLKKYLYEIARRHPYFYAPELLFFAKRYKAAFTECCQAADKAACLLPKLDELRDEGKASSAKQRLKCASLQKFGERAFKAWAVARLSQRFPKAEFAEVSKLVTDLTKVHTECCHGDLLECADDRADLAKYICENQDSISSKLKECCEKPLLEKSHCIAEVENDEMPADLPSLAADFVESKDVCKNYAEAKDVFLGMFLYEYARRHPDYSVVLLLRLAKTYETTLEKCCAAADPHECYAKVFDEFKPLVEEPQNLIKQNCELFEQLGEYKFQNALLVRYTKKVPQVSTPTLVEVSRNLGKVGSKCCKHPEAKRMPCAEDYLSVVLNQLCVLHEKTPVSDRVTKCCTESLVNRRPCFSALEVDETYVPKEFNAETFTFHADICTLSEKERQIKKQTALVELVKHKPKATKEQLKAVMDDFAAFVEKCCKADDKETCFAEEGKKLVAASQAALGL
- experiment-description: ELISA, lysate on plate-bound antigen
measure: ELISA HSA (RSU)

INSERT INTO measurements (binder, measure, value_observed) VALUES
  ('ISOP194AR9P1E3 (designed binder, not shown: small tags and cut ends, FN3 domain; E. coli lysate in the ELISA) LPAPKNLVVSRVTEDSARLSWKRSDDEWFDSFLIQYQESEKVGEAIVLTVPGSERSYDLTGLKPGTEYTVSIYGVYQRAALWFSNPLSAIFTT', 'ELISA HSA (RSU)', 800),
  ('ISOP121BR5P1D7 (designed binder, not shown: small tags and cut ends, FN3 domain; E. coli lysate in the ELISA) LPAPKNLGCFSRYRRLSRLSWETPYPSLSNFDSFLIQYQESEKVGEAIVLTVPGSERSYDLTGLKPGTEYTVSIYGVLKLSAAWWPSNPLSAIFTT', 'ELISA HSA (RSU)', 720);
